Reference source: the supplement of paper PMC10567573

B1: EHMT1 (parent)
chain: SARQGELQKVLLMLVDGIDPNFKM

- Variants of: B1
- EXPERIMENT_NOTES: protein stability index of a GFP-peptide fusion (GPS, HEK-293T) (PSI 1-6); higher = more stable;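 also: lentivirally expressed fusions sorted by FACS into six bins by GFP to DsRed ratio, PSI derived from sequencing read proportions per bin multiplied by bin number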
- ASSAY_CONTEXT: c terminus: a fixed tail appended
Class Y: protein stability index at least 2. Class N: protein stability index below 2.

Previously resolved entries follow.
SARQGELQKVLLTLVDGIDPNFKM [M13T]	Y
SARQGELQKVLLMKVDGIDPNFKM [L14K]	Y
SARQGELQKVLLMLVDGIDDNFKM [P20D]	N
SARQGEQQKVLLMLVDGIDPNFKM [L7Q]	N
SARQGELQKCLLMLVDGIDPNFKM [V10C]	N
SARQGELQKVLLMRVDGIDPNFKM [L14R]	Y
SADQGELQKVLLMLVDGIDPNFKM [R3D]	N
SARQGELQKSLLMLVDGIDPNFKM [V10S]	Y
SARQGELQKVLLMLVPGIDPNFKM [D16P]	Y
SARQGELQKVSLMLVDGIDPNFKM [L11S]	Y

q: In plain terms: is recorded protein stability index at least 2 for SARQDELQKVLLMLVDGIDPNFKM [G5D] ?
a: N

q: // inclusive: protein stability index at least 2? input: SALQGELQKVLLMLVDGIDPNFKM [R3L]
a: Y

q: Kindly determine if protein stability index recorded for SARQGELEKVLLMLVDGIDPNFKM [Q8E] is above or exactly 2.
a: Y

q: Is protein stability index for SARQGELQKVLLMLFDGIDPNFKM [V15F] at or above 2?
a: Y

q: Could you please find out whether SARQGELQKVLLMLVDGIDPNFDM [K23D] has protein stability index that meets 2 or exceeds it?
a: Y

q: Identify whether the reported protein stability index of the following variant is 2 or greater: SARYGELQKVLLMLVDGIDPNFKM [Q4Y]
a: N

q: Evaluate SARPGELQKVLLMLVDGIDPNFKM [Q4P] : protein stability index at minimum 2?
a: Y

q: Check this variant for protein stability index at or above 2: SARQGELQKVLNMLVDGIDPNFKM [L12N]
a: Y
